Listing: IC50 of selected molecules
# Tested on: Caco-2 cells
# ASSAY METHOD TEXT: Resazurin cell viability assay (cytotoxicity)
# Format: cell-based, human
# EXPERIMENTAL CONDITIONS: Homo sapiens, Caco-2, 72 h, No polymyxin, read-out: IC50

>  <MOLECULE>
CCCCCCCCCCCCO[C@H]1C[C@H](O)[C@@H](O)[C@H](C)O1 [Compound 3]

>  <MEASUREMENT UNIT>
µM

>  <READING QUALIFIER>
=

>  <IC50>
68.9

$$$$
>  <MOLECULE>
CCCCCCCCCCCCO[C@@H]1O[C@H](C)C[C@H](O)[C@H]1O [Compound 2]

>  <MEASUREMENT UNIT>
µM

>  <READING QUALIFIER>
=

>  <IC50>
54.8

$$$$
>  <MOLECULE>
CCCCCCCCCCCCO[C@@H]1C[C@@H](O)[C@H](O)[C@@H](CO)O1 [Compound 4]

>  <MEASUREMENT UNIT>
µM

>  <READING QUALIFIER>
>

>  <IC50>
100

$$$$
>  <MOLECULE>
CCCCCCCCCCCCO[C@H]1O[C@H](C)C[C@H](O)[C@H]1O [Compound 1]

>  <MEASUREMENT UNIT>
µM

>  <READING QUALIFIER>
=

>  <IC50>
54.2

$$$$
>  <MOLECULE>
CCCCCCCCCCCC[C@H]1O[C@H](C)C[C@H](O)[C@H]1O [Compound 5]

>  <MEASUREMENT UNIT>
µM

>  <READING QUALIFIER>
=

>  <IC50>
62.4

$$$$
